SYSTEM_NAME: human P2X3 receptor (Homo sapiens (Human), UniProt P56373)
Sequence (P56373 whole entry): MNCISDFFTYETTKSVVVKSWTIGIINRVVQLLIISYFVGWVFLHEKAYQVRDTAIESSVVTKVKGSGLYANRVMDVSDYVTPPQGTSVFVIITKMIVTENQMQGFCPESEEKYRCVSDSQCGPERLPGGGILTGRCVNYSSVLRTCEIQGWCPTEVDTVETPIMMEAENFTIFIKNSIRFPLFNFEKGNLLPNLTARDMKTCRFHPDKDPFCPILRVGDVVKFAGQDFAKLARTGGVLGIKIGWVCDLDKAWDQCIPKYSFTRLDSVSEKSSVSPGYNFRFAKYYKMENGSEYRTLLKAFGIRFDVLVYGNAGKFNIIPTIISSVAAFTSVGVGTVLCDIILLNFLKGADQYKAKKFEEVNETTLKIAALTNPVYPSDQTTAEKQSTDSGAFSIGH
TEST_PROTOCOL: P2X3 receptor inhibition, ATP-evoked Fluo-3 calcium fluorescence (FDSS 3000)
PARTICULARS: C6BU-1 cell transfected with human P2X3 receptor gene; ATP-evoked Fluo-3 fluorescence
Procedure: Stably expressing cell line (C6BU-1 cell transfected with human P2X3 receptor gene (GenBank accession number Y07683)) was used. […] Five minutes after, 40 nM ATP solution (50 μL) prepared by dilution with the dilution buffer was dispensed through the built-in automatic dispenser, and the measurement of fluorescence intensity was continued for 3 min. […] FDSS software (Hamamatsu Photonics K.K.) was used for calculation of the specific maximum fluorescence intensity. […]
pIC50: −log10 of the molar value.
PROPERTY: pIC50

Recorded pIC50, per entry:
COCc1ccccc1[C@@H]1C(C(=O)CC(C)C)=C(O)C(=O)N1c1ccc(-c2ccsc2)cc1 : 8.15
CC(C)c1n[nH]c2c1C(c1ccccc1C(N)=O)N(c1ccc(-c3ccsc3)cc1)C2=O (centres unmarked) : 8.70
COc1ncccc1C1c2c(C(C)(C)C)n[nH]c2C(=O)N1c1ccc(C2=NCCS2)cc1 (centres unmarked) : 6.65
Cc1ccc(-c2ccc(N3C(=O)C(O)=C(C(=O)C(C)C)C3c3ccccc3C(=O)N(C)C)cc2)o1 (centres unmarked) : 6.91
CC(C)C(=O)C1=C(O)C(=O)N(c2ccc(-c3ccsc3)cc2)C1c1ccccc1OCc1nnn[nH]1 (centres unmarked) : 7.92
COc1ccccc1C1c2c(C(C)(C)CO)n[nH]c2C(=O)N1c1ccc(-c2nccs2)cc1 (centres unmarked) : 7.66

[a] CC(C)c1n[nH]c2c1C(c1ccccc1OCC(=N)NO)N(c1ccc(-c3ccsc3)cc1)C2=O (centres unmarked)
[b] COc1ccccc1C1C(C(=O)C(C)C)=C(O)C(=O)N1c1ccc(-c2cc(C)on2)cc1 (centres unmarked)
Prompt: Would you kindly point out which of a and b has the smaller pIC50 figure? Selection: enter the item's label.
Response: b
(b: 6.31, a: 7.96)
